Catalogue of selective drug sensitivity score readings, one per entry.
- Tested on: JURKAT
- experimental_protocol: selective drug sensitivity score (sDSS, relative to normal bone marrow) (sDSS (score)); higher = more potent and effective on the cell line relative to normal bone marrow cells;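 further: ALL cell lines in 384-well plates, five doses spanning 10,000-fold, each plate scaled between vehicle and 100 µmol/L benzalkonium chloride controls, sDSS an adapted area-under-curve metric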
- measurement_setup: 72 h
API note: the answer field is a bare number with no unit suffix.

>  <molecule>
CCn1c(-c2nonc2N)nc2cnc(Oc3cccc(NC(=O)c4ccc(OCCN5CCOCC5)cc4)c3)cc21 (top concentration 10000 nM)

>  <target_system>
JURKAT

>  <test_value>
3.76

$$$$
>  <molecule>
Cc1cccc(-c2nn3c(c2-c2ccnc4ccc(C(N)=O)cc24)CCC3)n1 [Galunisertib] (top concentration 1000 nM)

>  <target_system>
JURKAT

>  <test_value>
0

$$$$

Field selective drug sensitivity score (JURKAT), entry COCCNCc1ccc(-c2cc3nccc(Oc4ccc(NC(=S)NC(=O)Cc5ccc(F)cc5)cc4F)c3s2)nc1 [Glesatinib] (top concentration 2500 nM) : -1.96

* * *

- System: SUP-B15
- experimental_protocol: selective drug sensitivity score (sDSS, relative to normal bone marrow) (sDSS (score)); higher = more potent and effective on the cell line relative to normal bone marrow cells
- measurement_setup: 72 h
Catalogue of selective drug sensitivity score readings, one per entry.
API note: the answer field is a bare number with no unit suffix.

>  <molecule>
CC(C)(C)C[C@@H]1N[C@@H](C(=O)N[C@H]2CC[C@H](O)CC2)[C@H](c2cccc(Cl)c2F)[C@]12C(=O)Nc1cc(Cl)ccc12 (top concentration 10000 nM)

>  <test_value>
20.4

$$$$
>  <molecule>
Cc1ccc(C(=O)Nc2cccc(C(F)(F)F)c2)cc1Nc1nc(-c2cccnc2)nc2c1cnn2C [NVP-BHG712] (top concentration 10000 nM)

>  <test_value>
7.98

$$$$
>  <molecule>
CCN1C(=O)CNc2ncc(-c3ccc(-c4nc[nH]n4)nc3C)nc21 [CC-115] (top concentration 10000 nM)

>  <test_value>
2.34

$$$$

In plain terms, C=CCc1cccc(/C=N/NC(=O)CN2CCN(Cc3ccccc3)CC2)c1O [PAC-1] (top concentration 10000 nM) has a documented selective drug sensitivity score of 2.08

In plain terms, N#Cc1ccc(COC[C@H]2O[C@@H](n3c(NCc4ccc(Cl)c(Cl)c4)nc4c(N)ncnc43)[C@H](O)[C@@H]2O)cc1 (top concentration 10000 nM) has a documented selective drug sensitivity score of 5.72

In plain terms, O=C(NC1CCNCC1)c1n[nH]cc1NC(=O)c1c(Cl)cccc1Cl [AT7519] (top concentration 10000 nM) has a documented selective drug sensitivity score of -4.56

* * *

- Test system: RPMI-8402
- experimental_protocol: selective drug sensitivity score (sDSS, relative to normal bone marrow) (sDSS (score)); higher = more potent and effective on the cell line relative to normal bone marrow cells
- measurement_setup: 72 h
Output condition met for selective drug sensitivity score not less than 0; output condition not met otherwise.

Is it the case that CN1CCC(COc2cnc(-c3cccc(Cn4nc(-c5cccc(C#N)c5)ccc4=O)c3)nc2)CC1 [Tepotinib] (top concentration 1000 nM) has selective drug sensitivity score reaching or exceeding 0?
condition not met

Is it the case that CN(CC(=O)N(Cc1ccc(C2CCCCC2)cc1)c1ccc(C(=O)O)cc1)S(=O)(=O)c1c(F)c(F)c(F)c(F)c1F [SH-4-54] (top concentration 25000 nM) has selective drug sensitivity score reaching or exceeding 0?
condition not met

Is it the case that COc1cc(NS(C)(=O)=O)ccc1Nc1c2ccccc2nc2ccccc12 [Amsacrine] (top concentration 10000 nM) has selective drug sensitivity score reaching or exceeding 0?
condition met

Is it the case that CN1CCc2c(c3ccccc3n2Cc2ccc(C(=O)NO)cc2)C1 [Tubastatin_A] (top concentration 10000 nM) has selective drug sensitivity score reaching or exceeding 0?
condition met

Is it the case that COc1cc(Br)c(Nc2nc(-c3c(C)nc4ncccn34)cs2)c(Br)c1 [PTC-209] (top concentration 10000 nM) has selective drug sensitivity score reaching or exceeding 0?
condition met

Is it the case that Nc1cccc2c1CN(C1CCC(=O)NC1=O)C2=O (stereo unspecified) [Lenalidomide] (top concentration 100000 nM) has selective drug sensitivity score reaching or exceeding 0?
condition not met

Is it the case that N#CC(c1ccnc(OCc2ccc(CN3CCOCC3)cc2)n1)c1nc2ccccc2s1 (stereo unspecified) [Bentamapimod] (top concentration 10000 nM) has selective drug sensitivity score reaching or exceeding 0?
condition met

Is it the case that Cc1ccc(C(=O)Nc2cccc(C(F)(F)F)c2)cc1Nc1nc(-c2cccnc2)nc2c1cnn2C [NVP-BHG712] (top concentration 10000 nM) has selective drug sensitivity score reaching or exceeding 0?
condition met

Is it the case that C=CCN(/C=C1/C(=O)O[C@H](COC)[C@@]2(C)C1=C(O)C(=O)C1=C2[C@H](OC(C)=O)C[C@]2(C)C(=O)CC[C@@H]12)CC=C [Sonolisib] (top concentration 10000 nM) has selective drug sensitivity score reaching or exceeding 0?
condition not met

* * *

Catalogue of selective drug sensitivity score readings, one per entry.
- Test system: MOLT-4
- experimental_protocol: selective drug sensitivity score (sDSS, relative to normal bone marrow) (sDSS (score)); higher = more potent and effective on the cell line relative to normal bone marrow cells
- measurement_setup: 72 h
API note: the answer field is a bare number with no unit suffix.

Reference set, count: 3
>  <molecule>
Sc1ncnc2nc[nH]c12 [Mercaptopurine] (top concentration 10000 nM)

>  <selective drug sensitivity score>
8.7

$$$$
>  <molecule>
Cc1cc(F)c(C(=O)Nc2cccc(-c3nncn3C(C)C)n2)cc1-n1cnc(C2CC2)c1 [Selonsertib] (top concentration 1000 nM)

>  <selective drug sensitivity score>
0

$$$$
>  <molecule>
CNC(=O)c1nn(C)c2c1C(C)(C)Cc1cnc(Nc3ccc(N4CCN(C)CC4)cc3)nc1-2 [Milciclib] (top concentration 10000 nM)

>  <selective drug sensitivity score>
3.84

$$$$

In plain terms, CCNC(=O)CCC/C=C\C[C@@H]1[C@@H](/C=C/[C@@H](O)CCc2ccccc2)[C@H](O)C[C@@H]1O [Bimatoprost] (top concentration 5500 nM) has a documented selective drug sensitivity score of 0

In plain terms, CS(=O)(=O)c1ccc(C(=O)Nc2ccc(Cl)c(-c3ccccn3)c2)c(Cl)c1 [Vismodegib] (top concentration 10000 nM) has a documented selective drug sensitivity score of -0.44

In plain terms, CN1CCN(c2nc(C3=C(c4c[nH]c5ccccc45)C(=O)NC3=O)c3ccccc3n2)CC1 [Sotrastaurin] (top concentration 10000 nM) has a documented selective drug sensitivity score of -1.7

In plain terms, CNC(=O)CN1CCC(Oc2cc3c(Nc4cccc(Cl)c4F)ncnc3cc2OC)CC1 [Sapitinib] (top concentration 1000 nM) has a documented selective drug sensitivity score of 0

In plain terms, CCN(CC)CCN(Cc1ccc(-c2ccc(C(F)(F)F)cc2)cc1)C(=O)Cn1c(SCc2ccc(F)cc2)nc(=O)c2c1CCC2 [Darapladib] (top concentration 1000 nM) has a documented selective drug sensitivity score of -1.42

In plain terms, Nc1nc(OCc2cc(Br)cs2)c2[nH]cnc2n1 [Lomeguatrib] (top concentration 10000 nM) has a documented selective drug sensitivity score of 0

In plain terms, CC(C)c1cc(C(=O)N2Cc3ccc(CN4CCN(C)CC4)cc3C2)c(O)cc1O [Onalespib] (top concentration 2500 nM) has a documented selective drug sensitivity score of 5.92

In plain terms, N#Cc1ccnc(N2C(=O)CC[C@H]2C(=O)N(c2cncc(F)c2)[C@H](C(=O)NC2CC(F)(F)C2)c2ccccc2Cl)c1 [Ivosidenib] (top concentration 10000 nM) has a documented selective drug sensitivity score of 0.2

In plain terms, Cn1ncc(Cl)c1-c1cc(C(=O)N[C@H](CN)Cc2cccc(F)c2)sc1Cl [Afuresertib] (top concentration 1000 nM) has a documented selective drug sensitivity score of 6.26

In plain terms, COc1cc(N2CCC(N3CCN(C)CC3)CC2)ccc1Nc1ncnc(Nc2ccccc2S(=O)(=O)C(C)C)n1 [ASP3026] (top concentration 10000 nM) has a documented selective drug sensitivity score of -0.14

* * *

- Tested on: COG-LL-402h
- experimental_protocol: selective drug sensitivity score (sDSS, relative to normal bone marrow) (sDSS (score)); higher = more potent and effective on the cell line relative to normal bone marrow cells
- measurement_setup: 72 h
Catalogue of selective drug sensitivity score readings, one per entry.
API note: the answer field is a bare number with no unit suffix.

In plain terms, COC(=O)c1ccc2c(c1)NC(=O)/C2=C(\Nc1ccc(N(C)C(=O)CN2CCN(C)CC2)cc1)c1ccccc1 [Nintedanib] (top concentration 10000 nM) has a documented selective drug sensitivity score of 5.14

In plain terms, CS(=O)(=O)N1CCN(Cc2cc3nc(-c4cccc5[nH]ncc45)nc(N4CCOCC4)c3s2)CC1 [Pictilisib] (top concentration 10000 nM) has a documented selective drug sensitivity score of 12.9

In plain terms, CC(C)Cn1cnc2c(N)nc3ccccc3c21 [Imiquimod] (top concentration 2500 nM) has a documented selective drug sensitivity score of 0

In plain terms, O=C(O)C(=O)O.[NH-][C@@H]1CCCC[C@H]1[NH-].[Pt+2] [Oxaliplatin] (top concentration 100000 nM) has a documented selective drug sensitivity score of 12.9

In plain terms, Nc1nc(OCc2cc(Br)cs2)c2[nH]cnc2n1 [Lomeguatrib] (top concentration 10000 nM) has a documented selective drug sensitivity score of 0

In plain terms, CCn1c(C(=O)N(C2CC2)C2CC2)cc2c3c(ncn3C)c(Nc3cc(C)n(C)n3)nc21 (top concentration 10000 nM) has a documented selective drug sensitivity score of -4.36
